B1: TPR t1 (parent)
chain: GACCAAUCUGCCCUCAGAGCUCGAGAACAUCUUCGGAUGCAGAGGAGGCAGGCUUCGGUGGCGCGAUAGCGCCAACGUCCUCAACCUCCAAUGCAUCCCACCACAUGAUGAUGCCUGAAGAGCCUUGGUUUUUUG

Variants of: B1
test-description: polymerase ribozyme fitness, log enrichment relative to wild type (log ratio); higher = more active; in vitro selection for triplet polymerase activity
measurement-name: polymerase ribozyme fitness (log ratio)
Numbers only.

Worked set:
C34A C123A :: -2.18
A24C A27G :: -6.86

Could you tell me polymerase ribozyme fitness (log ratio) for each of these variants? They are listed below.
1. U78C A83C C94U G110A A118U G120U U132C
2. C8U C12U C49U U116A G120U C123U U126C
3. C4G C56A
4. C70G G127U
5. A26U C94U C123G U132C
6. G48A G61U U78C
7. A68G C73U
8. C8G C15U G48C C124G

[A]
1. -2.85
2. -4.26
3. -2.34
4. -3.25
5. -1.68
6. -0.213
7. -2.42
8. 0.169

Record polymerase ribozyme fitness (log ratio) per entry; entries follow.
1. A24C G51U G61C C79A C102A G110U
2. A50U U55G C98U G127A
3. C70U A103U G120C U131C
4. C56U C79A C101U
5. C15U G63A C79A C97U U112G

[A]
1: -6.53; 2: -5.19; 3: -5.74; 4: -1.23; 5: -4.94
